These entries and their values trace back to PubChem BioAssay (NCATS).

- Tested on: TAB109
- assaySummary: qHTS profiling for inhibitors of Plasmodium falciparum proliferation (AID 504749); further: nearly all actives have a fitted effect of over 60% in size
- statedConditions: P. falciparum in erythrocytes, SYBR Green DNA, 72 h; series mostly up to 28.7 µM
Results filed as inconclusive are left out. Calls of active or inactive are those of the source. The call rests on the fitted dose curve; in most records, active means well fitted inhibition curve with a large enough effect; inconclusive means small, poorly fitted or top-dose-only effect; inactive means flat fitted curve, though single readings scatter.
Bench note: report the call from active, inactive

The following compounds have reported results that may help.
CCCCCCOc1ccc(C(=N)N(CCCC)CCCC)c2ccccc12
active
Clc1cc(Cl)c(OCC#CI)cc1Cl
active
Cc1ccccc1
inactive

[in] Name the outcome recorded for Cc1ccccc1OCC(O)CNCCOc1ccc(C(N)=O)cc1 (stereo unspecified) in the assay.
[out] inactive

[in] Name the outcome recorded for COC(C(=O)C(O)C(C)O)C1Cc2cc3cc(OC4CC(OC5CC(O)C(O)C(C)O5)C(O)C(C)O4)c(C)c(O)c3c(O)c2C(=O)C1OC1CC(OC2CC(OC3CC(C)(O)C(O)C(C)O3)C(O)C(C)O2)C(O)C(C)O1 (stereo unspecified) in the assay.
[out] active

[in] Name the outcome recorded for CC[N+](C)(C)Cc1ccccc1Br in the assay.
[out] inactive

[in] Name the outcome recorded for CC[C@@]1(O)C(=O)OCc2c1cc1n(c2=O)Cc2cc3c([N+](=O)[O-])cccc3nc2-1 in the assay.
[out] active

[in] Name the outcome recorded for CCCCCCCCCCCC[n+]1ccc2ccccc2c1 in the assay.
[out] active

[in] Name the outcome recorded for CCNC(=O)[C@@H]1CCCN1C(=O)[C@H](CCCN=C(N)N)NC(=O)[C@H](CC(C)C)NC(=O)[C@@H](Cc1c[nH]c2ccccc12)NC(=O)[C@H](Cc1ccc(O)cc1)NC(=O)[C@H](CO)NC(=O)[C@H](Cc1c[nH]c2ccccc12)NC(=O)[C@H](Cc1cnc[nH]1)NC(=O)[C@@H]1CCC(=O)N1 in the assay.
[out] active

[in] Name the outcome recorded for O=C1C(=O)c2ncccc2-c2cccnc21 in the assay.
[out] active

[in] Name the outcome recorded for CCCCCC(CC)COC(=O)CC(C(=O)OCC(CC)CCCC)S(=O)(=O)O (stereo unspecified) in the assay.
[out] inactive

* * *

- assaySummary: P-glycoprotein substrates identified in KB-3-1 adenocarcinoma cell line, qHTS therapeutic library screen (AID 1346986); further: nearly all actives have a fitted effect of over 60% in size
- statedConditions: KB-3-1 parental cells viability, CellTiter-Glo, 72 h; series mostly up to 44.5 µM
Records with an inconclusive call do not appear. The source made the active and inactive calls. Calls come from the whole dose curve; as a rule, active = well fitted inhibition curve with a large enough effect; inconclusive = small, poorly fitted or top-dose-only effect; inactive = no such curve, though single readings can be large or run the other way.
reportedEndpoint: outcome

C=C1[C@H]2CC[C@]3(O)[C@@](CC[C@@H]4[C@](C)(C(=O)O)CCC[C@]43C)(C2)[C@H]1OC(=O)/C(C)=C\C
inactive
CC(C)CC(=O)O[C@@H]1OC=C(CO[C@@H]2O[C@H](CO[C@@H]3O[C@H](CO)[C@@H](O)[C@H](O)[C@H]3O)[C@@H](O)[C@H](O)[C@H]2O)[C@H]2C[C@H](O)[C@@H](CO)[C@@H]12
inactive
O=C(C1CC1)N1CC[C@@H](Cc2n[nH]c(=O)n2-c2ccc(-c3ccc4occc4c3)cc2)C1
inactive

* * *

- System: C33A
- assaySummary: Primary qHTS to identify gynecologic anti-cancer compounds using libraries of approved drugs and bioactive compounds (AID 1345084); further: nearly all actives have a fitted effect of over 55% in size
- statedConditions: Gynecologic cancer cell panel viability, ATPlite luminescence, 48 h; series mostly up to 57.5 µM
Results filed as inconclusive are left out. Activity calls are given as the source filed them. Calls come from the whole dose curve; as a rule, active = well fitted cell-killing curve with a large enough effect; inconclusive = small, poorly fitted or top-dose-only effect, or effect the other way; inactive = flat fitted curve, though single readings scatter.
reportedEndpoint: activity change, negative = cytotoxicity

Past entries and their recorded results:
CC(=O)OC[C@]12[C@H](OC(C)=O)C(=O)[C@@H]3[C@@H](OC(C)=O)[C@@]14O[C@@]3(C)COC(=O)c1cccnc1[C@@H](C)[C@H](C)C(=O)O[C@@H]([C@H](OC(C)=O)[C@@H]2OC(C)=O)[C@]4(C)O
inactive
CO/N=C(/C(=O)N[C@@H]1C(=O)N2C(C(=O)O)=C(CSC(=O)c3ccco3)CS[C@H]12)c1csc(N)n1
inactive
CC(/C=C/C1(O)C2(C)COC1(C)CC(=O)C2)O[C@@H]1O[C@H](CO)[C@@H](O)[C@H](O)[C@H]1O (some centres not stated)
inactive
Cc1cc(C)cc(NC(=O)Cc2ccc(OC(C)(C)C(=O)O)cc2)c1
inactive
CC1(C)CCC(C)(C)c2cc3c(cc21)Sc1ccccc1N=C3c1ccc(C(=O)O)cc1
inactive

[in] Given COC(=O)C1=CO[C@@H](O[C@@H]2O[C@H](CO)[C@@H](O)[C@H](O)[C@H]2O)[C@@H]2[C@@](C)(O)[C@@H](O)C[C@]12O , state its recorded activity change, negative = cytotoxicity.
[out] inactive

[in] Given O=c1c2ccccc2nc2n1CCC2O (configuration not stated) , state its recorded activity change, negative = cytotoxicity.
[out] inactive

[in] Given CCC(=O)NS(=O)(=O)c1ccc(-c2c(-c3ccccc3)noc2C)cc1 , state its recorded activity change, negative = cytotoxicity.
[out] inactive

[in] Given CC(C)[C@@H](C)/C=C/[C@@H](C)[C@H]1CC[C@H]2C3=CC=C4C[C@@H](O)CC[C@]4(C)[C@H]3CC[C@]12C , state its recorded activity change, negative = cytotoxicity.
[out] inactive
